Below, each entry is listed with its recorded IC50.
Target: 11β-HSD1 (Homo sapiens, UniProt P28845)
Sequence (P28845 whole entry): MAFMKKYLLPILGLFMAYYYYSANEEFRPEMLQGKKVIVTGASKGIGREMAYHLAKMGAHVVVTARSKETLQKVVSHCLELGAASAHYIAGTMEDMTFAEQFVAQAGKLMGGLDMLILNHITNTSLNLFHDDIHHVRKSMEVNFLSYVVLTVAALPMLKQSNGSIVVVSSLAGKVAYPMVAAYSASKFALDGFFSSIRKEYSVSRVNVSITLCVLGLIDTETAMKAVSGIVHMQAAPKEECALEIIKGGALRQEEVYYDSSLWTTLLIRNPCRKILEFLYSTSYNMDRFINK
Test: biochemical
Details: Biological Test Example 1 IC50 (nM)
Enter your answer as a number in nM; do not include the unit.

• C[C@@H](c1ccc(-c2ncc(C(C)(C)O)cn2)cc1)N1CC[C@](CC(C)(C)O)(c2ccccc2)OC1=O = 12.2

For record `COc1ccc(-c2ccc([C@H](C)N3CC[C@](CCCNS(C)(=O)=O)(c4ccccc4)OC3=O)cc2)cn1` the listed IC50 is 0.5

For record `Cc1cc(-c2ccc([C@H](C)N3CC[C@](CCO)(c4ccc(F)cc4)OC3=O)cc2)ccn1` the listed IC50 is 1.1

For record `Cc1nccc(-c2ccc([C@H](C)N3CC[C@](CC(C)(C)C#N)(c4ccc(F)cc4)OC3=O)cc2)n1` the listed IC50 is 2.6

For record `C[C@@H](c1ccc(-c2ccc(OCCF)nc2)cc1)N1CC[C@](CC(C)(C)O)(c2ccccc2)OC1=O` the listed IC50 is 0.96

For record `Cc1cc(-c2ccc([C@H](C)N3CC[C@](CCC(C)(C)O)(c4ccc(F)cc4)OC3=O)cc2)ccn1` the listed IC50 is 28.3

For record `Cc1cc(-c2ccc([C@H](C)N3CC[C@](CC(C)(C)O)(c4ccc(F)cc4)OC3=O)cc2)cc(C)n1` the listed IC50 is 1.2

* * *

Molecular target: 11β-HSD1 (Homo sapiens, UniProt P28845)
Experiment: Biological Test Example 4: microsomal 11β-HSD1 in the presence of 50% human plasma
Settings: IC50 in Test Example 4 divided by IC50 in Test Example 1
Below, each entry is listed with its recorded Shift.
Keep it simple and answer with nothing but the number.

- C[C@@H](c1ccc(-c2cc(C#N)ccn2)cc1)N1CC[C@](CC(C)(C)O)(c2ccccc2)OC1=O: 18.2
- C[C@@H](c1ccc(-c2cncc(C(N)=O)n2)cc1)N1CC[C@](CC(C)(C)O)(c2ccc(F)cc2)OC1=O: 2.2
- Cc1cc(-c2ccc([C@H](C)N3CC[C@](CCCNS(C)(=O)=O)(c4ccc(F)cc4)OC3=O)cc2)ccn1: 5.4
- C[C@@H](c1ccc(-c2ccc(C(=O)NC(C)(C)C)cn2)cc1)N1CC[C@](CC(C)(C)C#N)(c2ccccc2)OC1=O: 8.0
- CCOc1ncc(-c2ccc([C@H](C)N3CC[C@](CC(C)(C)O)(c4ccccc4)OC3=O)cc2)cc1C: 17.5

For record `C[C@@H](c1ccc(-c2ccc(C#N)cn2)cc1)N1CC[C@](CCCO)(c2ccccc2)OC1=O` the listed Shift is 7.7

For record Cc1cc(-c2ccc([C@H](C)N3CC[C@](C)(c4ccc(F)cc4)OC3=O)cc2)ccn1 (single isomer, unassigned) the listed Shift is 83.8

* * *

Below, each entry is listed with its recorded inhibition at 0.1 µM.
Molecular target: 11β-HSD1 (Homo sapiens)
Experiment: biochemical
Conditions: read-out: Average % inhibition at 100 nM
Enter your answer as a number in %; do not include the unit.

Past entries and their recorded results:
• C[C@@H](c1ccc(-c2ccccn2)cc1)N1CC[C@](CCC(N)=O)(c2ccc(F)cc2)OC1=O = 91.9
• Cc1cc(-c2ccc([C@H](C)N3CC[C@](CCCN(C)S(C)(=O)=O)(c4ccccc4)OC3=O)cc2)ccn1 = 90.8
• Cc1cc(-c2ccc([C@H](C)N3CC[C@](CCCO)(c4ccc(F)cc4)OC3=O)cc2)cc(C)n1 = 99.3
• Cc1cc(-c2ccc([C@H](C)N3CC[C@](CC(C)(C)O)(c4ccccc4)OC3=O)cc2)ccn1 = 98.8
• C[C@@H](c1ccc(-c2ccncn2)cc1)N1CC[C@](CC(C)(C)O)(c2ccccc2)OC1=O = 98.5
• C[C@@H](c1ccc(-c2cncc(F)c2)cc1)N1CC[C@](CCCO)(c2ccc(F)cc2)OC1=O = 97.4
• Cc1cccc(-c2ccc([C@H](C)N3CC[C@](CCCO)(c4ccc(F)cc4)OC3=O)cc2)n1 = 97.9
• C[C@@H](c1ccc(-c2ccc(C(=O)NC3CC3)nn2)cc1)N1CC[C@](CC(C)(C)O)(c2ccccc2)OC1=O = 93.6

With 11β-HSD1 (Homo sapiens) as the test system, `C[C@@H](c1ccc(-c2ccc(C(F)(F)F)cn2)cc1)N1CC[C@](CCCO)(c2ccc(F)cc2)OC1=O` showed inhibition at 0.1 µM of 91.5

With 11β-HSD1 (Homo sapiens) as the test system, `C[C@@H](c1ccc(-c2ncc(C(=O)NC3CC3)s2)cc1)N1CC[C@](CC(C)(C)C#N)(c2ccccc2)OC1=O` showed inhibition at 0.1 µM of 99.2

With 11β-HSD1 (Homo sapiens) as the test system, `C[C@@H](c1ccc(-c2ccccn2)cc1)N1CC[C@](CCCO)(c2ccc(F)cc2)OC1=O` showed inhibition at 0.1 µM of 100

With 11β-HSD1 (Homo sapiens) as the test system, `Cc1cc(-c2ccc([C@H](C)N3CC[C@](CC4(O)CC4)(c4ccc(F)cc4)OC3=O)cc2)ccn1` showed inhibition at 0.1 µM of 95.1

With 11β-HSD1 (Homo sapiens) as the test system, `Cc1cc(-c2ccc([C@H](C)N3CC[C@](CCCO)(c4ccc(F)cc4)OC3=O)cc2)nc(C)n1` showed inhibition at 0.1 µM of 93.7

With 11β-HSD1 (Homo sapiens) as the test system, `C[C@@H](c1ccc(-c2ccc(C#N)cn2)cc1)N1CC[C@](CC(C)(C)O)(c2ccc(F)cc2)OC1=O` showed inhibition at 0.1 µM of 97.6

With 11β-HSD1 (Homo sapiens) as the test system, `C[C@@H](c1ccc(-c2cccnn2)cc1)N1CC[C@](CCCO)(c2ccc(F)cc2)OC1=O` showed inhibition at 0.1 µM of 95.2

* * *

Molecular target: UniProt P28845
Assay: biochemical
Details: Biological Test Example 1 IC50 (nM)
Criterion: IC50 strictly under 0.9 nM. Met: Condition met. Not met: Condition not met.

Some solved cases for reference:
- C[C@@H](c1ccc(-c2ccc(C(=O)NC(C)(C)C)nn2)cc1)N1CC[C@](CC(C)(C)C#N)(c2ccccc2)OC1=O [EXAMPLE 9]: Condition not met
- C[C@@H](c1ccc(-c2cncc(C#N)n2)cc1)N1CC[C@](CC(C)(C)O)(c2ccc(F)cc2)OC1=O [EXAMPLE 157]: Condition not met
- Cc1cc(-c2ccc([C@H](C)N3CC[C@](CCN(C)S(C)(=O)=O)(c4ccccc4)OC3=O)cc2)ccn1 [EXAMPLE 117]: Condition not met
- CC1(c2ccccc2)CCN(c2cccc(-c3ccncc3)c2)C(=O)O1 (stereo not drawn) [EXAMPLE 33]: Condition not met
- Cc1cc(-c2ccc([C@H](C)N3CC[C@](CC(C)(C)O)(c4ccccc4)OC3=O)cc2)ccn1 [EXAMPLE 97]: Condition not met

Note: attention shifts to another entry.
Confirm or reject: IC50 of Cc1cc(-c2ccc([C@H](C)N3CC[C@](CC(C)(C)C#N)(c4ccc(F)cc4)OC3=O)cc2)ccn1 [EXAMPLE 116] lies strictly below 0.9 nM
Condition met

* * *

Molecular target: UniProt:P08684
Sequence (P08684 whole entry): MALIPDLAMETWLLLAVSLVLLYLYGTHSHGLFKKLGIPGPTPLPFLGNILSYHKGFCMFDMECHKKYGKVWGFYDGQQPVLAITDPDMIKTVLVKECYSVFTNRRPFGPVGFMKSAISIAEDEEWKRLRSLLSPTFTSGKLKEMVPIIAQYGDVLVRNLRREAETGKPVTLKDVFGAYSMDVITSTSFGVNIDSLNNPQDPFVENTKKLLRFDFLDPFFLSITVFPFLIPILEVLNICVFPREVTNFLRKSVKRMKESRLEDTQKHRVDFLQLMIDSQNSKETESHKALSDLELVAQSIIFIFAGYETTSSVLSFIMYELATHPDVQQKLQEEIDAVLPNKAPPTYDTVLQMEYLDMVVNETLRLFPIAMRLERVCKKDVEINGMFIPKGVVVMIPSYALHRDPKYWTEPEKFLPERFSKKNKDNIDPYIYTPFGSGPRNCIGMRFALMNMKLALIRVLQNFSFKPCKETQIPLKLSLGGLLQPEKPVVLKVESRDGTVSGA
Below, each entry is listed with its recorded IC50.

Past entries and their recorded results:
- Cc1nn(C)c(C)c1-c1ccc([C@H](C)N2CC[C@](CC(C)(C)O)(c3ccccc3)OC2=O)cc1: > 50 µM
- CNC(=O)c1ccc(-c2ccc([C@H](C)N3CC[C@](CC(C)(C)O)(c4ccccc4)OC3=O)cc2)cn1: 28.4 µM

With UniProt:P08684 as the test system, `Cc1nc(-c2ccc([C@H](C)N3CC[C@](CC(C)(C)O)(c4ccccc4)OC3=O)cc2)sc1C` showed IC50 of 7.8 µM

With UniProt:P08684 as the test system, `C[C@@H](c1ccc(-c2cc(S(C)(=O)=O)ccn2)cc1)N1CC[C@](CC(C)(C)O)(c2ccccc2)OC1=O` showed IC50 of 42.9 µM

* * *

Molecular target: CYP2C9 (Homo sapiens, UniProt P11712)
Construct: purchased Invitrogen 2859; host or cells: insect cells infected with baculovirus (microsomes)
Sequence (P11712 whole entry): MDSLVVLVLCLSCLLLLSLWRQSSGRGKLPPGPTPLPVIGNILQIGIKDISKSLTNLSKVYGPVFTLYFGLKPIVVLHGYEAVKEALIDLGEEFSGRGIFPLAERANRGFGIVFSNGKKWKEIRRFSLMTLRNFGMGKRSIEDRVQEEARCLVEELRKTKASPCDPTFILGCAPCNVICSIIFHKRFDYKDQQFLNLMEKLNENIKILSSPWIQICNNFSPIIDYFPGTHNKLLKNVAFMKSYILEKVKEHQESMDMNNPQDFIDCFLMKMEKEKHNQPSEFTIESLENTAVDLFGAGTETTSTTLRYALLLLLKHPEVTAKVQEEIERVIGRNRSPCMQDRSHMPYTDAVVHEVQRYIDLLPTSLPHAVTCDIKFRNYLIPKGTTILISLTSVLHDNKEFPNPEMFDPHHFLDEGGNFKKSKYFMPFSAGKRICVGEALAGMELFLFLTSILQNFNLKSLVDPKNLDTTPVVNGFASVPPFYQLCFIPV
Assay: Biological Test Example 9: CYP2C9 inhibition (Invitrogen kit, fluorogenic OOMR)
Format: in vitro ADME
Below, each entry is listed with its recorded IC50.
Enter your answer as a number in µM; do not include the unit.

Past entries and their recorded results:
- Cc1cc(-c2ccc([C@H](C)N3CC[C@@](C)(c4ccc(F)cc4)OC3=O)cc2)ccn1 (single isomer, unassigned): 2.7
- Cc1cc(-c2ccc([C@H](C)N3CC[C@](CC(C)(C)C#N)(c4ccc(F)cc4)OC3=O)cc2)ccn1: 5.3
- C[C@@H](c1ccc(-c2ccc(N)nc2)cc1)N1CC[C@](CCCO)(c2ccccc2)OC1=O: 2.4
- C[C@@H](c1ccc(-c2cncnc2)cc1)N1CC[C@](CCCO)(c2ccc(F)cc2)OC1=O: 28.3
- C[C@@H](c1ccc(-c2cccnc2)cc1)N1CC[C@](CCCNS(C)(=O)=O)(c2ccccc2)OC1=O: 17.3
- Cc1ncc(-c2ccc([C@H](C)N3CC[C@](CCCO)(c4ccc(F)cc4)OC3=O)cc2)cn1: 18.4
- COc1ccc(-c2ccc([C@H](C)N3CC[C@](CCCO)(c4ccccc4)OC3=O)cc2)cn1: 10
- C[C@@H](c1ccc(-c2ccc(C#N)cn2)cc1)N1CC[C@](CC(C)(C)O)(c2ccc(F)cc2)OC1=O: 4.7
- C=CC[C@]1(c2ccc(F)cc2)CCN([C@@H](C)c2ccc(-c3cncc(Cl)c3)cc2)C(=O)O1: 0.4
- C[C@@H](c1ccc(-c2cncc(F)c2)cc1)N1CC[C@](CCCO)(c2ccc(F)cc2)OC1=O: 1.7

For record `C[C@@H](c1ccc(-c2cnccn2)cc1)N1CC[C@](CC(C)(C)O)(c2ccccc2)OC1=O` the listed IC50 is 9.7

For record `Cc1cc(-c2ccc([C@H](C)N3CC[C@](CC(C)(C)O)(c4ccc(F)cc4)OC3=O)cc2)ccn1` the listed IC50 is 7.9

For record `C[C@@H](c1ccc(-c2ccccn2)cc1)N1CC[C@](CCCO)(c2ccc(F)cc2)OC1=O` the listed IC50 is 10.9

For record `C[C@@H](c1ccc(-c2ncccn2)cc1)N1CC[C@](CCCO)(c2ccc(F)cc2)OC1=O` the listed IC50 is 2.9

For record `COc1ccc(-c2ccc([C@H](C)N3CC[C@](CCCNS(C)(=O)=O)(c4ccccc4)OC3=O)cc2)cn1` the listed IC50 is 4.5

For record `COc1ccc(-c2ccc([C@H](C)N3CC[C@](CCCNS(C)(=O)=O)(c4ccc(F)cc4)OC3=O)cc2)cn1` the listed IC50 is 3.8

For record `Cc1cc(-c2ccc([C@H](C)N3CC[C@](CCCNS(C)(=O)=O)(c4ccc(F)cc4)OC3=O)cc2)ccn1` the listed IC50 is 8.9

For record `COc1cncc(-c2ccc([C@H](C)N3CC[C@](CCCO)(c4ccc(F)cc4)OC3=O)cc2)c1` the listed IC50 is 6.6

This collection of values is drawn from patent US8569292B2.
